Entries and their activity change, less the hit threshold values follow.
- tested.system: Potassium voltage-gated channel subfamily KQT member 2 (Rattus norvegicus)
- experiment.summary: KCNQ2 potentiation in CHO cells – cell-based, FluxOR thallium flux, counter-screen for hERG block protector project, confirmation (AID 1942);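 also: normalized value minus buffer-control mean plus three SD of buffer wells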
- measurement.conditions: FluxOR thallium flux fluorescence, at 10 µM, stronger effect = higher value
Out of some 2,400 compounds screened, about 580 (24%) were called active. These entries were drawn from the full list.
Respond with the bare value in %.

Observe how each entry below is paired with its result.
[
  {
    "molecule": "O=C1N(CN2CCN(Cc3ccccc3)CC2)c2ccccc2C12OCCCO2",
    "measure.name": "activity change, less the hit threshold",
    "unit.abbrev": "%",
    "value.measured": -12.5
  },
  {
    "molecule": "Oc1ccc(Cl)cc1C1=NNC(c2cccs2)C1 (centres undefined)",
    "measure.name": "activity change, less the hit threshold",
    "unit.abbrev": "%",
    "value.measured": 9.1
  },
  {
    "molecule": "Cc1ccccc1C(=O)Nc1nc(=S)ss1",
    "measure.name": "activity change, less the hit threshold",
    "unit.abbrev": "%",
    "value.measured": 58.6
  },
  {
    "molecule": "Cc1ccc2[nH]c(=O)c(C(c3nnnn3C3CCCC3)N3CCCc4ccccc43)cc2c1 (centres undefined)",
    "measure.name": "activity change, less the hit threshold",
    "unit.abbrev": "%",
    "value.measured": 13.3
  },
  {
    "molecule": "CC1(C)Cc2c(ccc3ccccc23)C2=C(C(=O)N3CCCC3)C(=O)C(=O)N21",
    "measure.name": "activity change, less the hit threshold",
    "unit.abbrev": "%",
    "value.measured": -11.1
  },
  {
    "molecule": "O=C(Nc1cc(Cl)ccc1O)C1CC(c2ccccc2Cl)=NO1 (centres undefined)",
    "measure.name": "activity change, less the hit threshold",
    "unit.abbrev": "%",
    "value.measured": -19.1
  },
  {
    "molecule": "Cc1cccc(NC(=S)NC(=O)c2ccco2)c1C",
    "measure.name": "activity change, less the hit threshold",
    "unit.abbrev": "%",
    "value.measured": 54.7
  },
  {
    "molecule": "Cc1cc(S(=O)(=O)NCC(C)C)ccc1OCC(=O)NCc1ccccn1",
    "measure.name": "activity change, less the hit threshold",
    "unit.abbrev": "%",
    "value.measured": -21.1
  },
  {
    "molecule": "Cc1cccc(C)c1NC(=S)NC(=O)c1ccc(Br)o1",
    "measure.name": "activity change, less the hit threshold",
    "unit.abbrev": "%",
    "value.measured": 66.5
  },
  {
    "molecule": "CCOc1ccccc1NC(=O)C(=O)CC(=O)c1ccc(OC)cc1",
    "measure.name": "activity change, less the hit threshold",
    "unit.abbrev": "%",
    "value.measured": -5.2
  }
]

Ask | Suppose we examine the molecule Cc1ccc(N2CCN(C(=O)N3CCCC3)CC2)cc1C ; what activity change, less the hit threshold value has been reported?
Reply | 3.3

Ask | Same lookup for CNC(=O)c1ccc(NC(=O)CN2c3cccc4cccc(c34)S2(=O)=O)cc1 , please.
Reply | -18.1

Ask | Repeat for the following molecule: O=C(Nc1ncc(Br)s1)C(Cc1ccccc1)n1cccc1 (centres undefined)
Reply | -5.9

Ask | Request: Cc1cccc(NC(=S)NC(=O)c2ccc(Br)o2)c1C
Reply | 12.7

Ask | Try this molecule too: O=C(COc1nsnc1N1CCOCC1)Nc1ccc(Cl)cc1
Reply | -17.5

Ask | Please do the same for CCOC(=O)N1CCN(c2c(-c3ccc(C)c(C)c3)c(=O)c2=O)CC1 as well.
Reply | -10.9

Ask | Now this one: COC(=O)CC1C(=O)NCCN1C(=S)NC(=O)c1sc2ccccc2c1Cl (centres undefined)
Reply | -11.2

Ask | Entry Cn1sc(NC(=O)c2cccc(Cl)c2)nc1=O please
Reply | -5.4

Ask | Another molecule: O=C(NC(=S)N(CCCCO)C1CCCCC1)c1sc2ccccc2c1Cl
Reply | 26

* * *

- tested.system: Potassium voltage-gated channel subfamily KQT member 2 (Rattus norvegicus) (UniProt O88943)
- Sequence (O88943 whole entry, looked up): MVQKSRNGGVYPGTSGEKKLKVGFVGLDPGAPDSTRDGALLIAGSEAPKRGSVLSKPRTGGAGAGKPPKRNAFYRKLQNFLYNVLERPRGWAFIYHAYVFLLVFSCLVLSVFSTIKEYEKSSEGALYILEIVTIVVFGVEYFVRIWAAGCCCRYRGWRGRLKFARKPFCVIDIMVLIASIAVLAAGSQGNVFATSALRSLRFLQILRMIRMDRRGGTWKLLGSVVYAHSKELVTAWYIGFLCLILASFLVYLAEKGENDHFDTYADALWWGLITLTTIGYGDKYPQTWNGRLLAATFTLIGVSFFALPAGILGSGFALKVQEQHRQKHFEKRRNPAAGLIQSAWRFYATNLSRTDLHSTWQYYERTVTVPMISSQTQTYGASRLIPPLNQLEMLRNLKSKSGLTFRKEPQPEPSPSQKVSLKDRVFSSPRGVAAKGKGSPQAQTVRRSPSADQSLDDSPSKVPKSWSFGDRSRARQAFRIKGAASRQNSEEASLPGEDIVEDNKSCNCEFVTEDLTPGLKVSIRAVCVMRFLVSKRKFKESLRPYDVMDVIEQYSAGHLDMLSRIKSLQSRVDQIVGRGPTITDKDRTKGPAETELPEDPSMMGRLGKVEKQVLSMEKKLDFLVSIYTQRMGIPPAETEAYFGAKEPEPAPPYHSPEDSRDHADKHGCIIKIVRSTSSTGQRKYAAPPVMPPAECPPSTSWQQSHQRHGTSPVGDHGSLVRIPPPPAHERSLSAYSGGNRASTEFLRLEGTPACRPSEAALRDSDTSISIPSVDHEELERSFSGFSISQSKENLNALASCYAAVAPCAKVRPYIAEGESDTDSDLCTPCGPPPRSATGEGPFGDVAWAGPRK
- experiment.summary: KCNQ2 potentiation in CHO cells – cell-based, FluxOR thallium flux, counter-screen for hERG block protector project, confirmation (AID 1942);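 also: normalized value minus buffer-control mean plus three SD of buffer wells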
- measurement.conditions: FluxOR thallium flux fluorescence, at 10 µM, stronger effect = higher value
Among all 2,400 compounds or so, about 580 (24%) were called active. The list is a sample of the results.
activity change, less the hit threshold values for the compounds below.
Field: numeric (%). Do not append units.

Example entries and their recorded answers appear below.
[
  {
    "compound": "C=CCn1c(=S)[nH]c2scc(-c3ccc(C)o3)c2c1=O",
    "activity change, less the hit threshold (%)": 80.3
  },
  {
    "compound": "O=c1c2cc(Cl)ccc2nc(-c2ccc([N+](=O)[O-])cc2)n1O",
    "activity change, less the hit threshold (%)": 31.4
  },
  {
    "compound": "CC(NC(=O)COC(=O)C1CCC1)c1ccccc1 (centres undefined)",
    "activity change, less the hit threshold (%)": -21.4
  },
  {
    "compound": "CC(C)(C)C(=O)NC(=S)N1CCOCC1",
    "activity change, less the hit threshold (%)": -8
  },
  {
    "compound": "Cc1ccc(S(=O)(=O)N2CCOCC2)cc1NC(=O)COC(=O)c1cccnc1Cl",
    "activity change, less the hit threshold (%)": -22.8
  },
  {
    "compound": "CC(NC(=O)NC1CCCCC1)c1ccccc1 (centres undefined)",
    "activity change, less the hit threshold (%)": 26.3
  }
]

Continue with the next compound.
Ask | activity change, less the hit threshold lookup needed for CCN(C(=O)c1cc2c(=O)[nH]c3ccc(C)cc3c2s1)c1ccccc1F , thanks.
Reply | -7

* * *

- tested.system: Potassium voltage-gated channel subfamily KQT member 2 (Rattus norvegicus) (UniProt O88943)
- experiment.summary: KCNQ2 potentiation in CHO cells – cell-based, FluxOR thallium flux, counter-screen for hERG block protector project, confirmation (AID 1942);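 also: normalized value minus buffer-control mean plus three SD of buffer wells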
- measurement.conditions: FluxOR thallium flux fluorescence, at 10 µM, stronger effect = higher value
Screen size: about 2,400 compounds; about 580 (24%) were called active. These entries were drawn from the full list.
Each item that follows carries a reported activity change, less the hit threshold.
Reply with just the number (in %).

Study these solved cases before continuing.
[
  {
    "compound": "CCOc1ccc(-n2cnc3sc(C)c(C)c3c2=O)cc1",
    "activity change, less the hit threshold / %": -26.5
  },
  {
    "compound": "Cc1ccc(S(=O)(=O)NC(=S)NC2CCCCC2)cc1",
    "activity change, less the hit threshold / %": -11.5
  },
  {
    "compound": "COc1ccc2nc(/N=C/c3c(C)[nH]n(-c4ccc(C)cc4C)c3=O)sc2c1",
    "activity change, less the hit threshold / %": 23
  },
  {
    "compound": "CC(C)(C)c1ccc(C(=O)NC(=S)Nc2nc3c(s2)CCCC3)cc1",
    "activity change, less the hit threshold / %": 10
  },
  {
    "compound": "CN1/C(=C/C=C(C#N)C#N)C=Cc2ccccc21",
    "activity change, less the hit threshold / %": -17.6
  }
]

Ask | Query: activity change, less the hit threshold; subject: CN(Cc1ccsc1)C(=O)CCc1nnc(Cc2c[nH]c3ccccc23)o1
Reply | -10.9

Ask | Thanks! And O=C(NC1CCCCC1)c1ccc(COCC(F)(F)F)o1 ?
Reply | -5

Ask | Same again, this time with COc1cc(OC)cc(C(=O)NC(=S)N2CCCCCC2)c1
Reply | -13.9

Ask | Another: Clc1cccc(-c2ccc(C=Nc3ccc(N4CCOCC4)cc3)o2)c1Cl
Reply | -8.8

Ask | Also need O=C(NC(=S)N1CCCC(C(F)(F)F)C1)c1ccc(F)cc1 (stereo not drawn) , thanks.
Reply | 24.6

Ask | Further, for Cc1sc2ncnc(SCC(=O)c3ccc(O)cc3O)c2c1C ?
Reply | 2.9

Ask | What would you report for CCOc1ccc2nc(/N=C/c3nc(-c4ccc(Br)cc4)oc3O)sc2c1 ?
Reply | -9.3

Ask | Entry O=C(O)c1ccccc1P(=O)(c1ccccc1)c1ccccc1 please
Reply | -16.8

Ask | Do the same for COc1cc(/C=N/Nc2nc(N3CCCC3)nc(N3CCCC3)n2)ccc1OCc1ccccc1F please
Reply | -23.8

Ask | Okay, and CCOc1ccc2nc(N3C(=O)/C(=C/c4ccc(Cl)cc4)NC3=S)sc2c1 ?
Reply | -21.3

Ask | Then what about the compound COc1ccc(CCN2C(=O)CSC2=S)cc1OC ?
Reply | -24

Ask | // repeat for CCOC(=O)c1sc(NN=C(C(=O)OC)C(=O)OC)c(C(=O)OCC)c1C and report
Reply | -9.1

Ask | Then this compound: CC12CN3CC(C)(CN(C1)C3c1ccc3c(c1)OCO3)C2=O (stereo not drawn)
Reply | -15.9

Ask | Moving on to O=C(C1CC(=O)N(c2ccc3c(c2)OCCO3)C1)N1CCCC(C(F)(F)F)C1 (stereo not drawn)
Reply | -22.3

Ask | For Cc1ccc(/C=C(\NC(=O)c2ccccc2)C(=O)N2CCCCC2)cc1 then?
Reply | -24.3

Ask | Item: COC(=O)c1ccc(C(=O)NC(=S)Nc2nc3c(s2)CCCC3)cc1
Reply | 16

Ask | Next up: CCc1ccc(S(=O)(=O)NC(=S)NC2CCCCC2)cc1
Reply | 52.3

Ask | How about Nc1nc(Br)c2c(F)cccc2c1-c1ccc(Cl)cc1 ?
Reply | -21.1
